Assay: clinical
Conditions: human, in vivo, pH 4, tmax
quantity: Tmax (min)
Answers are plain numbers, in min.

Quick one: Tmax for CNC[C@H](O)c1ccc(O)c(O)c1 [Epinephrine] ?
53
